Just for reference, a melting point compilation (Tetko et al.; mined from patent text by program, amines drawn as free bases though some values may be those of a salt) is where these values come from.

Recorded measurements of melting point, one per entry

Fc1ccc(C(Cl)=NNc2ccccc2)cc1
118 to 120 °C
BrCCCCCOc1ccc2c(c1)OCO2
54 to 57 °C
COC(=O)C(C(=O)OC)C(C#Cc1ccccc1)c1ccc(OC)c(OC2CCCC2)c1 (racemic)
66 to 67 °C

input: Find the measured melting point of "CC#CCCCCCCCCCCCC" and report it.
output: 36 to 37 °C

input: # return recorded melting point for input "CSc1ncc2c(=O)[nH]c(-c3ccccc3OCC(C)C)nc2n1"
output: 185 to 186 °C

input: Please list melting point recorded for the compound "O=C(Nc1cnc2c(c1)CCN2)c1cc2cc(F)ccc2n1Cc1cccc(F)c1"
output: 230 to 232 °C

input: Look up and state reported melting point for "CCCC(=O)c1cc2c(=O)n(NS(C)(=O)=O)c(=O)[nH]c2cc1C(F)(F)F"
output: 236 to 239 °C

input: In one line, give reported melting point of the entry "C=CCNC(=O)N1CC(c2ccc(C(C)(C)C)cc2)C1" .
output: 98 to 99 °C

input: Return reported melting point. Input compound: "O=C(O)[C@H](Cc1ccccc1)C[C@@H](Cc1ccccc1)C(=O)N[C@@H](COCc1ccccc1)C(=O)O"
output: 149 to 151 °C

input: Respond only with melting point recorded for "CCOC(=O)c1nc(N)sc1C(=O)CC"
output: 134 to 135 °C

input: Quote melting point reported for "CC(=O)Nc1cc(Oc2ccc3c(C(=O)Nc4ccc(CN5CCN(C)CC5)cc4)cccc3c2)ncn1" please.
output: 238 to 242 °C

input: Dear colleague, please send me the reported melting point for "CCCCCCCNC(=O)Nc1ccccc1C(=O)NCCCC1CCN(C(c2ccccc2)c2ccccc2)CC1" when you can.
output: 123 to 124 °C

input: Given "O=C(O)c1cc([N+](=O)[O-])cc(S(F)(F)(F)(F)F)c1" , respond with its melting point.
output: 140 °C

input: Tell me melting point reported for "O=c1[nH]c2ccc(C(F)(F)F)cc2c(-c2cc(Cl)ccc2O)c1NCc1ccccc1"
output: 215 to 217 °C

input: Report measured melting point; entry is "Cc1nc(-c2cc(C#N)c(=O)[nH]c2C)cs1"
output: 305 to 307 °C

input: Return the recorded melting point value; entry: COC(=O)C(CO)N(Cc1ccc(Cl)cc1N)S(=O)(=O)c1ccc(OC)cc1 (stereo not given)
output: 99 to 112 °C

input: Read the entry "CCCc1sc(-c2ccccc2)nc1O" and write its reported melting point.
output: 86 to 87 °C

input: Please report the measured melting point for "Cc1ccc(C(=O)Nc2ccc(CN3CCN(C)CC3)cc2)cc1Nc1nccc(-c2cccnc2)n1"
output: 153 to 155 °C

input: Report melting point, nothing else, for this compound: "C#CCn1cc(Cl)cnc1=O"
output: 130 °C

input: Look up melting point of "O=c1c(-c2ccccc2O)coc2c(O)c(O)ccc12" and report it.
output: 240 to 242 °C

input: Please report melting point for the following compound: Cn1ncnc1COc1nn2c(-c3ccccc3F)nnc2cc1C1CCCO1 (stereo not given)
output: 136 to 139 °C

input: Please give measured melting point of the following entry: "CC(C)(C)c1cc(C=O)c(O)c(S(=O)(=O)CCl)c1"
output: 128 to 129 °C

input: Give recorded melting point. "Cn1c2ccccc2c(=O)c2cccn21"
output: 154 to 156 °C

input: Supply recorded melting point for O=C1NCC(c2cccc(C(F)(F)F)c2)C1c1cn2c3c(cccc13)CCC2 (stereo not given) here.
output: 82 to 85 °C

input: Give recorded melting point. "Cc1noc(NS(=O)(=O)c2ccccc2-c2ccc(-c3ncco3)cc2Cc2ncco2)c1C"
output: 88 to 95 °C

input: Specify reported melting point for the compound shown: "O=C(Nc1ccc(Oc2ccc(C(=O)N3CCC(C(=O)N4CCN(Cc5ccc6c(c5)OCO6)CC4)CC3)cc2)nc1)c1ccc(Cl)c(Cl)c1"
output: 236 to 238 °C

input: Identify melting point associated with the compound COc1cc(C(=O)N2CCC(CCN3CCC(C(=O)c4nc5ccccc5n4Cc4ccccn4)CC3)(c3ccccc3)C2)cc(OC)c1OC (stereo not given)
output: 84 to 89 °C

input: Report melting point, nothing else, for this compound: CC1(Cc2cc(C(C)(C)C)c(O)c(C(C)(C)C)c2)CCCCC1=O (stereo not given)
output: 75 °C

input: Give reported melting point value for "CC(=O)CCC(=O)Nc1cc(CO)cc(Nc2c3ccccc3nc3ccccc23)c1"
output: 197 to 199 °C

input: Note down melting point recorded for "COc1cc2[nH]c(C)c(C(=O)C(=O)N3CCC(C(=O)c4ccccc4)CC3)c2cc1OC"
output: 188 to 190 °C
